This collection of values is drawn from paper PMC3629230.

assay: Pharmacokinetics and absolute bioavailability after intraduodenal administration in rats; settings: male, Sprague-Dawley, rat, plasma, 1.5 mg, tmax, intraduodenal, 1.5 mg/animal, 50 µL vehicle Capmul MCM L8
reported metric: Tmax (min)
Field: numeric (min). Do not append units.

q: Check the records and state Tmax for CC(=O)N[C@H]1[C@H]([C@H](O)[C@H](O)CO)OC(C(=O)O)=C[C@@H]1N=C(N)N [Zanamivir, zanamivir]
a: 4.8

###

test: Pharmacokinetics and absolute bioavailability after intraduodenal administration in rats; settings: male, Sprague-Dawley, rat, plasma, 1.5 mg, Cmax, intraduodenal, 1.5 mg/animal, 50 µL vehicle glycerol
reported metric: Cmax (ng/mL)
Field: numeric (ng/mL). Do not append units.

q: Check the records and state Cmax for "CC(=O)N[C@H]1[C@H]([C@H](O)[C@H](O)CO)OC(C(=O)O)=C[C@@H]1N=C(N)N"
a: 948
